Each entry below lists one item and its recorded Corn plant response rating value.
tested on: corn (Zea mays); experiment: Test A postemergence, corn; format: in vivo; settings: Postemergence, 500 g ai/ha; visual injury vs untreated controls after approx. 10 days; 0 to 100 scale (0 no effect, 100 complete control)

In: Report Corn plant response rating for COCC1(COC)CC(c2cc(NS(=O)(=O)C(F)(F)F)c(C)cc2C)=NO1
Out: 80

---

test system: barnyardgrass (Echinochloa crus-galli); test: Test A postemergence, barnyardgrass; assay type: in vivo; conditions: Postemergence, 31 g ai/ha; 0 to 100 scale (0 no effect, 100 complete control)
metric-name: Plant response rating, Barnyardgrass
Kindly provide the number alone.

compound: CO[C@@H]1CCCN(C(=O)c2cc(NS(=O)(=O)C(F)(F)F)c(C)cc2C)C1
system-name: barnyardgrass (Echinochloa crus-galli)
Plant response rating, Barnyardgrass: 20
//
compound: COC1CCCN(C(=O)c2cc(NS(=O)(=O)C(F)(F)F)c(C)cc2C)CC1 (stereo not drawn)
system-name: barnyardgrass (Echinochloa crus-galli)
Plant response rating, Barnyardgrass: 10
//
compound: CSC1CCCN(C(=O)c2cc(NS(=O)(=O)C(F)(F)F)c(C)cc2C)C1 (stereo not drawn)
system-name: barnyardgrass (Echinochloa crus-galli)
Plant response rating, Barnyardgrass: 0
//
compound: CSc1cc(-c2cc(NS(=O)(=O)C(F)(F)F)c(C)cc2C)c(=O)n(C)n1
system-name: barnyardgrass (Echinochloa crus-galli)
Plant response rating, Barnyardgrass: 0
//
compound: COC1CN(C(=O)c2cc(NS(=O)(=O)C(F)(F)F)c(C)cc2C)C1
system-name: barnyardgrass (Echinochloa crus-galli)
Plant response rating, Barnyardgrass: 40

Proceeding to the next compound to report its Plant response rating, Barnyardgrass.
In: Report Plant response rating, Barnyardgrass for COC1CCCN(C(=O)c2cc(N(C(C)=O)S(=O)(=O)C(F)(F)F)c(C)cc2C)C1 (stereo not drawn)
Out: 0

---

system: Ryegrass, Italian (Italian ryegrass, Lolium multiflorum); assay: Test A postemergence, Ryegrass, Italian; type: in vivo; settings: Postemergence, 500 g ai/ha; visual injury approx. 10 days; 0 to 100 scale (0 no effect, 100 complete control)
Each entry below lists one item and its recorded Plant response rating, Ryegrass, Italian value.

compound: Cc1cc(C)c(N2CC3(CCCCC3)OC2=O)cc1NS(=O)(=O)C(F)(F)F
Plant response rating, Ryegrass, Italian: 60

In: Would you please give the reported Plant response rating, Ryegrass, Italian of Cc1cc(Cl)c(C(=O)N(C)C)cc1NS(=O)(=O)C(F)(F)F with Ryegrass, Italian (Italian ryegrass, Lolium multiflorum)?
Out: 80

In: Would you please give the reported Plant response rating, Ryegrass, Italian of CC(=O)N(c1cc(N2CCC3(CCCCC3)C2=O)c(C)cc1C)S(=O)(=O)C(F)(F)F with Ryegrass, Italian (Italian ryegrass, Lolium multiflorum)?
Out: 70

In: Would you please give the reported Plant response rating, Ryegrass, Italian of Cc1cc(C)c(N(S(=O)(=O)C(F)(F)F)S(=O)(=O)C(F)(F)F)cc1C(=O)N1CCC(Cl)CC1 with Ryegrass, Italian (Italian ryegrass, Lolium multiflorum)?
Out: 30

In: Would you please give the reported Plant response rating, Ryegrass, Italian of Cc1cc(Cl)c(NS(=O)(=O)C(F)(F)F)cc1C(=O)N1CCOCC1C (centres unmarked) with Ryegrass, Italian (Italian ryegrass, Lolium multiflorum)?
Out: 80

---

Each entry below lists one item and its recorded Plant response rating, Wheat value.
tested on: wheat (Triticum aestivum); assay: Test A postemergence, wheat; type: in vivo; settings: Postemergence, 125 g ai/ha; 0 to 100 scale (0 no effect, 100 complete control)

Past entries and their recorded results:
compound: Cc1cc(Cl)c(C2=NOC3(CCCC3)C2)cc1N(S(=O)(=O)C(F)(F)F)S(=O)(=O)C(F)(F)F [Compound 186]
system-name: wheat (Triticum aestivum)
metric-name: Plant response rating, Wheat
result: 0
//
compound: CCC(C)C(=O)OCN(c1cc(C2=NOC3(CCCC3)C2)c(C)cc1C)S(=O)(=O)C(F)(F)F (stereo not drawn) [Compound 151]
system-name: wheat (Triticum aestivum)
metric-name: Plant response rating, Wheat
result: 50
//
compound: Cc1cc(Cl)c(NS(=O)(=O)C(F)(F)F)cc1C(=O)N1CCOCC1C (stereo not drawn) [Compound 245]
system-name: wheat (Triticum aestivum)
metric-name: Plant response rating, Wheat
result: 60
//
compound: Cc1cc(C)c(N(S(=O)(=O)C(F)(F)F)S(=O)(=O)C(F)(F)F)cc1C1=NOC(C)(CCl)C1 (stereo not drawn) [Compound 227]
system-name: wheat (Triticum aestivum)
metric-name: Plant response rating, Wheat
result: 70
//
compound: Cc1cc(C)c(C2=NOC3(CCSCC3)C2)cc1NS(=O)(=O)C(F)(F)F [Compound 176]
system-name: wheat (Triticum aestivum)
metric-name: Plant response rating, Wheat
result: 60

Proceeding to the next compound to report its Plant response rating, Wheat.
In: Report Plant response rating, Wheat for Cc1cc(C)c(C2=NOC3(CCCCCC3)C2)cc1NS(=O)(=O)C(F)(F)F [Compound 277]
Out: 0

---

Each entry below lists one item and its recorded Pigweed, Palmer plant response rating value.
test system: Pigweed, Palmer (palmer amaranth, palmer pigweed, Amaranthus palmeri); test: Test A1 postemergence, Pigweed, Palmer; format: in vivo; settings: 31 g ai/ha, postemergence; 0 to 100 scale (0 no effect, 100 complete control)
Text: […]
Kindly provide the number alone.

molecule: Cc1cc(C)c(N2Cc3cccc(C)c3C2=O)cc1NS(=O)(=O)Cl
system-name: Pigweed, Palmer (palmer amaranth, palmer pigweed, Amaranthus palmeri)
metric-name: Pigweed, Palmer plant response rating
result-number: 30

In: Report Pigweed, Palmer plant response rating for Cc1c(NS(=O)(=O)C(F)(F)F)cc(C(=O)N2CCC(C)CC2)c(C)c1C
Out: 10

In: Report Pigweed, Palmer plant response rating for Cc1cc(C)c(C2=NOC(C(C)C)C2)cc1NS(=O)(=O)C(F)(F)F (centres unmarked)
Out: 0

In: Report Pigweed, Palmer plant response rating for Cc1cc(C)c(N2CCC3(CCC(C)CC3)C2=O)cc1NS(=O)(=O)C(F)(F)F (centres unmarked)
Out: 20

In: Report Pigweed, Palmer plant response rating for COC1CCC2(CC1)CCN(c1cc(NS(=O)(=O)C(F)(F)F)c(C)cc1C)C2=O (centres unmarked)
Out: 50

In: Report Pigweed, Palmer plant response rating for CCOC(=O)N(c1cc(C(=O)N2C[C@@H](C)O[C@H](C)C2)c(C)c(C)c1C)S(=O)(=O)C(F)(F)F (relative stereo)
Out: 10

In: Report Pigweed, Palmer plant response rating for Cc1cc(C)c(N2Cc3cccc(Br)c3C2=O)cc1NS(=O)(=O)Cl
Out: 0

In: Report Pigweed, Palmer plant response rating for Cc1cc(C)c(N2CCC3(CCC(C(F)(F)F)CC3)C2=O)cc1NS(=O)(=O)C(F)(F)F (centres unmarked)
Out: 20

---

Each entry below lists one item and its recorded Plant response rating, Blackgrass value.
test system: blackgrass (Alopecurus myosuroides); assay: Test A postemergence, blackgrass; type: in vivo; settings: Postemergence, 125 g ai/ha; visual injury approx. 10 days; 0 to 100 scale (0 no effect, 100 complete control)
Kindly provide the number alone.

Past entries and their recorded results:
molecule: COC1CCCN(C(=O)c2cc(N(COC(C)=O)S(=O)(=O)C(F)(F)F)c(C)cc2C)C1 (centres unmarked)
metric-name: Plant response rating, Blackgrass
result-number: 0
//
molecule: Cc1cc(C(F)(F)F)c(NS(=O)(=O)C(F)(F)F)cc1C(=O)N(C)C
metric-name: Plant response rating, Blackgrass
result-number: 0
//
molecule: Cc1cc(C)c(-c2ccnn(CC(C)C)c2=O)cc1NS(=O)(=O)C(F)(F)F
metric-name: Plant response rating, Blackgrass
result-number: 0
//
molecule: Cc1cc(Cl)c(NS(=O)(=O)C(F)(F)F)cc1C(=O)N1CCOC(C)C1 (centres unmarked)
metric-name: Plant response rating, Blackgrass
result-number: 50
//
molecule: CCn1cc(-c2cc(NS(=O)(=O)C(F)(F)F)c(C)cc2C)c(=O)n(C)c1=O
metric-name: Plant response rating, Blackgrass
result-number: 90

In: Report Plant response rating, Blackgrass for COc1cnn(-c2cc(N(S(=O)(=O)C(F)(F)F)S(=O)(=O)C(F)(F)F)c(C)cc2C)c(=O)c1OC
Out: 10

In: Report Plant response rating, Blackgrass for CCn1nc(C)cc(-c2cc(N(S(=O)(=O)C(F)(F)F)S(=O)(=O)C(F)(F)F)c(C)cc2C)c1=O
Out: 0

In: Report Plant response rating, Blackgrass for Cc1c(NS(=O)(=O)C(F)(F)F)cc(C(=O)N2CCC(F)CC2)c(C)c1F
Out: 10

---

tested on: ragweed (common ragweed, Ambrosia artemisiifolia); experiment: Test A postemergence, ragweed; type: in vivo; settings: Postemergence, 125 g ai/ha; 0 to 100 scale (0 no effect, 100 complete control)
metric-name: Plant response rating, Ragweed
Kindly provide the number alone.

Past entries and their recorded results:
compound: Cc1cc(C)c(C(=O)N2CCC(F)(F)C2)cc1NS(=O)(=O)C(F)(F)F
result-number: 80
--
compound: Cc1cc(C)c(N2CCC3(CCCC3)C2=O)cc1NS(=O)(=O)C(F)(F)F
result-number: 30
--
compound: Cc1cc(F)c(C(=O)N2CC(C)OC(C)C2)cc1NS(=O)(=O)C(F)(F)F (centres unmarked)
result-number: 60
--
compound: Cc1cc(Cl)c(C(=O)N2CCCCC2)cc1N(S(=O)(=O)C(F)(F)F)S(=O)(=O)C(F)(F)F
result-number: 30

Proceeding to the next compound to report its Plant response rating, Ragweed.
In: Report Plant response rating, Ragweed for CCN(CC)C(=O)c1cc(NS(=O)(=O)C(F)(F)F)c(C)cc1C
Out: 20
